Molecular target: Eukaryotic translation initiation factor 2-alpha kinase 3 (Homo sapiens) (UniProt Q9NZJ5)
Sequence (Q9NZJ5 whole entry, looked up, the tested form may be a part): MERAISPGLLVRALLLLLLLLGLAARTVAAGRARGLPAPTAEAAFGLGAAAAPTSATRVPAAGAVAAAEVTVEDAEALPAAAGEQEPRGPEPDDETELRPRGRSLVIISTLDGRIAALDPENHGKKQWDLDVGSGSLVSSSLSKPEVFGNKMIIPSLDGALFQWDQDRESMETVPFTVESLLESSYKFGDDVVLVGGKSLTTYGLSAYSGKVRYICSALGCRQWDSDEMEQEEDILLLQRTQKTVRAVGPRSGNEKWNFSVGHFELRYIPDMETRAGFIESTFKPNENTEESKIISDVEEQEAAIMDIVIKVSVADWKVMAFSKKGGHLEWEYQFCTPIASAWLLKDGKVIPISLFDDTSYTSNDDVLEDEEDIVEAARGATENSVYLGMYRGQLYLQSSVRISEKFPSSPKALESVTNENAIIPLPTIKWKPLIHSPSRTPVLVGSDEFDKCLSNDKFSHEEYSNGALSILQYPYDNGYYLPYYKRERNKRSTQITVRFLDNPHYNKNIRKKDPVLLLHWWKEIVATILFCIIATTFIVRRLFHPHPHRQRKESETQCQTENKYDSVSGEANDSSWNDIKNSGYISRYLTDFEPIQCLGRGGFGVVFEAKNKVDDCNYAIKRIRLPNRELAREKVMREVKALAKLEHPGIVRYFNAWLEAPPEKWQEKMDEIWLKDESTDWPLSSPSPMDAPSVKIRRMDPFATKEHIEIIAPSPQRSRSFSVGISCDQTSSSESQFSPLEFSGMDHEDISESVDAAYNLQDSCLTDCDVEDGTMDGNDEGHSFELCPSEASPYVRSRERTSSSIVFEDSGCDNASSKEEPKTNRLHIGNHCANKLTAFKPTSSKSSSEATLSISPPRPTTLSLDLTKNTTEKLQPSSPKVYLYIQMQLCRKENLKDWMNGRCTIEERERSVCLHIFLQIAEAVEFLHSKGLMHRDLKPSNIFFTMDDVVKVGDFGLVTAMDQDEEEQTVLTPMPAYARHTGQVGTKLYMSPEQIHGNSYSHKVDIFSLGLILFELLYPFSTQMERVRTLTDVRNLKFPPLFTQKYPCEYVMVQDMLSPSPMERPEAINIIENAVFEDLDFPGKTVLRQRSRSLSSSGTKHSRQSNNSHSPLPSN
Experiment: block of dimerizer-induced PERK translation repression, primary screen, PERK inhibitor project, CHO PERK-DD cells, SEAP luminescence, HTS (AID 1416);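 also: PERK kinase domain activated by AP20187 dimerizer at 100 nM; 0% = DMSO with dimerizer and 100% = rapamycin at 8.4 µM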
Conditions: CHO PERK-DD fusion, SEAP luminescence translation reporter; at 5.6 µM; active compounds read high
Screen size: about 220,000 compounds; about 370 (0.17%) were called active. The sample holds actives, similar compounds and a random draw of the others, so the mix is not that of the screen.
Exercise: for every item that follows, state its recorded inhibition.
# output: bare number, implied unit %

Bench note: what inhibition did "Cc1cc(S(=O)(=O)NC2CCCCC2)ccc1OCC(=O)NCc1cccnc1" show?
0.23

Then "Cc1ccc(C)c(NC(=S)NNC(=S)Nc2ccc(C(C)C)cc2)c1" ?
0.16

Then "CN(C)S(=O)(=O)c1cccc(NC(=S)NCc2ccc3c(c2)OCO3)c1" ?
-0.05

Then "Cc1cccc(N2CCN(c3ccc(NC(=O)/C=C\C(=O)O)cc3)CC2)c1" ?
0.1

Then "CCOc1ccc(C(=O)NC(=S)Nc2ccc(N3CCOCC3)c(Cl)c2)cc1[N+](=O)[O-]" ?
1.74

Then "Cc1ccc(Cl)c(NC(=O)CN(C)CC(=O)Nc2ccc(F)c(F)c2F)c1Cl" ?
0.24

Then "O=C(NNc1cc(Cl)cc(Cl)c1)c1c(F)cccc1Cl" ?
0.97

Then "Cc1ccc(S(=O)(=O)NCC(=O)N(CC(=O)NC(C)(C)C)Cc2cccs2)cc1" ?
1.04

Then "NC(=O)Cc1ccc2sc(-c3ccccc3)nc2c1" ?
0
